- Experiment description: Solubility of rebaudioside B crystal polymorphs by incremental addition to solvent in a temperature controlled stirred vessel, visual determination
- Type: physicochemical
- Condition notes: 95% ethanol/5% water solution, 25 °C, organic solvent or mixture, thermodynamic from solid, 95% ethanol/5% water solution, 25° C.; read-out: solubility in a 95% ethanol/5% water solution
Measured attribute: solubility

Ask: solubility for C=C1C[C@@]23CC[C@H]4[C@@](C)(CCC[C@@]4(C)C(=O)O)[C@@H]2CC[C@]1(O[C@@H]1O[C@H](CO)[C@@H](O)[C@H](O[C@@H]2O[C@H](CO)[C@@H](O)[C@H](O)[C@H]2O)[C@H]1O[C@@H]1O[C@H](CO)[C@@H](O)[C@H](O)[C@H]1O)C3 [Form 1, rebaudioside B] ?
Reply: ~28 mg/mL
